Each recorded value in this set is attributed to the supplement of paper PMC10126150.

Tested on: ATP;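 note: ATP exposure 15 min at 22 °C before imaging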
Assay details: switch fluorescence ratio, 500 uM ATP over buffer (Cy3 cluster intensity, sum of 5 cycles each) (fold (ratio)); higher = stronger signal-on switching upon ATP binding; sequences stand for … in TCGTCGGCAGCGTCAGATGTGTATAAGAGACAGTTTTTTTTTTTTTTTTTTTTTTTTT…TC
Conditions used: aptamer strand: ATP DNA aptamer (quencher-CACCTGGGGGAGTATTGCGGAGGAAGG + anchor), 100 nM annealed; ATP concentration: 500 uM
Value type: switch fluorescence ratio

Query block: Find the recorded switch fluorescence ratio belonging to AATTGGGGGA and report it.
Result block: 0.979

Query block: Find the recorded switch fluorescence ratio belonging to CGTCAATTTA and report it.
Result block: 1.12

Query block: Find the recorded switch fluorescence ratio belonging to TATGAAGCCT and report it.
Result block: 1.16

Query block: Find the recorded switch fluorescence ratio belonging to TTTCAAGGGT and report it.
Result block: 0.985

Please report switch fluorescence ratio for every entry that follows.
1. ATCGGCTGTG
2. TAATAGGGGG
3. AAAGTAGGCT

Result block:
1: 0.983; 2: 1.02; 3: 1.01

###

Test system: ATP;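 note: ATP exposure 15 min at 22 °C before imaging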
Assay details: switch fluorescence ratio, 500 uM ATP over buffer (Cy3 cluster intensity, sum of 5 cycles each) (fold (ratio)); higher = stronger signal-on switching upon ATP binding; sequences stand for … in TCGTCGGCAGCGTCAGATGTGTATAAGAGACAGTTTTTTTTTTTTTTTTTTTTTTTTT…TC
Conditions used: aptamer strand: ATP DNA aptamer (quencher-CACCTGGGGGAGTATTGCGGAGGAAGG + anchor), 100 nM annealed; ATP concentration: 500 uM
For each record, write down the corresponding switch fluorescence ratio.

Query block: Return switch fluorescence ratio measured with ATP given this sequence: GCATTGATGT
Result block: 1.02

Please report switch fluorescence ratio for every entry that follows.
1. AGTCTGGGTA
2. TTTTGGTTGA
3. ATATTGCCTA

Result block:
0.965
0.977
1

Please report switch fluorescence ratio for every entry that follows.
1. GGGTAGACTG
2. CATGCTTTTG
3. ATGACCTGGG
4. GATATGCGTT
5. TTTTGTATGG

Result block:
1. 0.955
2. 1.01
3. 0.977
4. 0.985
5. 0.989

###

System: ATP;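 note: ATP exposure 15 min at 22 °C before imaging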
Assay details: switch fluorescence ratio, 500 uM ATP over buffer (Cy3 cluster intensity, sum of 5 cycles each) (fold (ratio)); higher = stronger signal-on switching upon ATP binding; sequences stand for … in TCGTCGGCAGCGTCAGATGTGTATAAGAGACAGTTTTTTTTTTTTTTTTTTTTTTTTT…TC
Conditions used: aptamer strand: ATP DNA aptamer (quencher-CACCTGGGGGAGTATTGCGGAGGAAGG + anchor), 100 nM annealed; ATP concentration: 500 uM
For each record, write down the corresponding switch fluorescence ratio.
Give bare numbers.

Example entries begin here.
Query block: Find the recorded switch fluorescence ratio belonging to TTTGAGGGTT and report it.
Result block: 0.983

Query block: Find the recorded switch fluorescence ratio belonging to TATGGGTAGC and report it.
Result block: 0.986

Query block: Find the recorded switch fluorescence ratio belonging to GCGTCAACTC and report it.
Result block: 1.1

Query block: Find the recorded switch fluorescence ratio belonging to GGACAATGGG and report it.
Result block: 0.985

Query block: Find the recorded switch fluorescence ratio belonging to TTCAAGGCGG and report it.
Result block: 1.01

Please report switch fluorescence ratio for every entry that follows.
1. CGTTGTATTA
2. AGGACGGGCA

Result block:
[0.996, 1.05]

Please report switch fluorescence ratio for every entry that follows.
1. TCCCGAAGAT
2. GGTTAGAAAT
3. TGTTGCGCTA
4. TTGGTAAGGG
5. GGCGTGGCGG
6. TATGTTGTCG

Result block:
1: 1.03; 2: 0.98; 3: 1.02; 4: 1.03; 5: 0.994; 6: 1.08

Please report switch fluorescence ratio for every entry that follows.
1. TTTAGCATGG
2. TAGCATCTGT
3. CGATATGGGG
4. CTTAGGGCGG
5. ATTATGGTCA
6. AAGAAAGTCG
7. ATTCGTGTAT

Result block:
1.01
1
1.01
0.957
0.994
1
0.977

###

Test system: ATP;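 note: ATP exposure 15 min at 22 °C before imaging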
Assay details: switch fluorescence ratio, 500 uM ATP over buffer (Cy3 cluster intensity, sum of 5 cycles each) (fold (ratio)); higher = stronger signal-on switching upon ATP binding; sequences stand for … in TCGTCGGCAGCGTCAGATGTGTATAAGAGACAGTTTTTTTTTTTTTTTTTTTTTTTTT…TC
Conditions used: aptamer strand: ATP DNA aptamer (quencher-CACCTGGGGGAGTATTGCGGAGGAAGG + anchor), 100 nM annealed; ATP concentration: 500 uM
Would you mind labelling by switch fluorescence ratio? At or over 1 is yes (1), under is no (0).

Query block: Please indicate if the recorded switch fluorescence ratio for TATTCCTCTG meets or exceeds 1.
Result block: yes (1)

More entries:
Query block: Please indicate if the recorded switch fluorescence ratio for AGGCATATAG meets or exceeds 1.
Result block: yes (1)

Query block: Please indicate if the recorded switch fluorescence ratio for AGCTTAAGGA meets or exceeds 1.
Result block: yes (1)

Query block: Please indicate if the recorded switch fluorescence ratio for ACAGCGCAAT meets or exceeds 1.
Result block: yes (1)

Query block: Please indicate if the recorded switch fluorescence ratio for GCTGATTGGC meets or exceeds 1.
Result block: yes (1)

Query block: Please indicate if the recorded switch fluorescence ratio for GGATGACAGA meets or exceeds 1.
Result block: no (0)

Query block: Please indicate if the recorded switch fluorescence ratio for TTTTAGGCTG meets or exceeds 1.
Result block: no (0)

Query block: Please indicate if the recorded switch fluorescence ratio for AAAAACACCG meets or exceeds 1.
Result block: yes (1)

Query block: Please indicate if the recorded switch fluorescence ratio for ATTAGCAGGC meets or exceeds 1.
Result block: yes (1)

###

For each record, write down the corresponding switch fluorescence ratio.
Tested on: ATP;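 note: ATP exposure 15 min at 22 °C before imaging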
Assay details: switch fluorescence ratio, 500 uM ATP over buffer (Cy3 cluster intensity, sum of 5 cycles each) (fold (ratio)); higher = stronger signal-on switching upon ATP binding; sequences stand for … in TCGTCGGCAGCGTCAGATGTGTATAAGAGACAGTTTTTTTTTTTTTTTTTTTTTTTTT…TC
Conditions used: aptamer strand: ATP DNA aptamer (quencher-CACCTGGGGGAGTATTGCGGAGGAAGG + anchor), 100 nM annealed; ATP concentration: 500 uM
One number for each entry.

Example entries begin here.
Query block: Find the recorded switch fluorescence ratio belonging to TGGAATGCGG and report it.
Result block: 0.998

Query block: Find the recorded switch fluorescence ratio belonging to AAACGGGCGG and report it.
Result block: 0.996

Query block: Find the recorded switch fluorescence ratio belonging to TCTTCTATCT and report it.
Result block: 0.985

Query block: Find the recorded switch fluorescence ratio belonging to ATGGTTGCAG and report it.
Result block: 0.955

Query block: Find the recorded switch fluorescence ratio belonging to TGATACCTGT and report it.
Result block: 0.975

Query block: Find the recorded switch fluorescence ratio belonging to GCATTTGTAC and report it.
Result block: 1.27

Please report switch fluorescence ratio for every entry that follows.
1. CGGAAGGGCC
2. CGAGTGTGTG
3. CGGGAAGGGC
4. TAATTTCTGT
5. TCGGAAGGG
6. AGCGTAGTCA
7. TTTCTTTAGT
8. TGGACTTGGG

Result block:
1: 0.995; 2: 0.97; 3: 1.19; 4: 1.01; 5: 0.988; 6: 0.987; 7: 1; 8: 0.983

Please report switch fluorescence ratio for every entry that follows.
1. ACTCGCCCCA
2. ACAGAGGTTT
3. ACGACCGGGT
4. CCAAAACAGC
5. ATTTTTACTC
6. AAGACGGGGA
7. AGGGCGGAGT

Result block:
1.46
0.984
1.2
1.03
1.01
0.974
0.994

###

System: ATP;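 note: ATP exposure 15 min at 22 °C before imaging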
Assay details: switch fluorescence ratio, 500 uM ATP over buffer (Cy3 cluster intensity, sum of 5 cycles each) (fold (ratio)); higher = stronger signal-on switching upon ATP binding; sequences stand for … in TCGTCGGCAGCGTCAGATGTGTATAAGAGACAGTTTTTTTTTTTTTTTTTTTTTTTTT…TC
Conditions used: aptamer strand: ATP DNA aptamer (quencher-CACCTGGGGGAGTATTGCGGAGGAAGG + anchor), 100 nM annealed; ATP concentration: 500 uM
Value type: switch fluorescence ratio
Give bare numbers.

Example entries begin here.
Query block: Find the recorded switch fluorescence ratio belonging to TAAGACAAAG and report it.
Result block: 0.992

Query block: Find the recorded switch fluorescence ratio belonging to GGGGGAAATT and report it.
Result block: 1.03

Query block: Find the recorded switch fluorescence ratio belonging to TTAAATAATA and report it.
Result block: 1.09

Query block: Find the recorded switch fluorescence ratio belonging to ATAGGACAAC and report it.
Result block: 1.04

Query block: Find the recorded switch fluorescence ratio belonging to TGGTGCGGGG and report it.
Result block: 0.999

Please report switch fluorescence ratio for every entry that follows.
1. GAATTGTTCG
2. TTCCAGATTT
3. GGGGAGGCCC
4. AGGGGCACTC
5. ATAGTCAATT
6. CTTGCGGGCG
7. ATATATAAGT
8. AATTGGTGCA

Result block:
[0.985, 1.02, 0.998, 0.992, 0.993, 0.982, 0.972, 0.96]

Please report switch fluorescence ratio for every entry that follows.
1. TTGGGCTTGA
2. GTTATTGTTT
3. GGGCCCGCAA
4. CTTATGGACT

Result block:
1: 1.01; 2: 0.983; 3: 5.05; 4: 0.991

Please report switch fluorescence ratio for every entry that follows.
1. TTGGGGGGCC
2. CATCTGTTGT
3. GTTAGATGGT
4. TGTGCTTTGT
5. TTTCTGGTT
6. CGGTGAGTAG
7. CTAGGGGTTT

Result block:
1. 1.01
2. 0.986
3. 0.985
4. 1
5. 1.01
6. 0.988
7. 1

Please report switch fluorescence ratio for every entry that follows.
1. AGTATATAGG
2. AGGGTTGCTG
3. AGATTTAGTC
4. CCTATAGTAC
5. CCGCGGGTTC
6. AAAGGGAAT

Result block:
1. 0.986
2. 1.05
3. 1
4. 1.69
5. 1.55
6. 1.02

Please report switch fluorescence ratio for every entry that follows.
1. TACTTTCGGT
2. TCGAAGGGGA

Result block:
1: 1; 2: 0.971

Please report switch fluorescence ratio for every entry that follows.
1. GGGACCTTGT
2. GGTTACACTG
3. AGGTTCACTA

Result block:
1. 1.01
2. 1.03
3. 1.01

Please report switch fluorescence ratio for every entry that follows.
1. CGTTGAGATC
2. GCCTTGGGAA
3. TGCAGCTTGT
4. TGTCGTCTGT
5. TGGGATGAAG
6. CCAAGGCTTT
7. GGTCATGCGG
8. TAATTGAGCA

Result block:
[1.06, 1.02, 1.02, 0.993, 0.982, 1.03, 1.01, 0.99]

Please report switch fluorescence ratio for every entry that follows.
1. TTAAGTAGTG
2. CGGTAGAGGT
3. ATCTTAGTTA
4. TATGGTGTGG
5. AAACGGGGAG
6. AGTTGCTTTT
7. GGCCTCAAGG

Result block:
1: 0.98; 2: 1.01; 3: 0.999; 4: 0.967; 5: 0.991; 6: 0.993; 7: 1.06
